amyloid nucleation score values, listed per item
# measurement-notes: amyloid nucleation score (Sup35N fusion, yeast selection) (log enrichment); library NNK1; higher = more nucleation; inactive = no reads after selection;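 also: zero at mode of non-aggregating sequences after 7 days selection at 30°C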
Answer with the value's number alone.

Answered examples (10):
Provide only the value of recorded amyloid nucleation score for ALPCYCPPVQSPCASFGWME -0.569

Report amyloid nucleation score for IDVFLNALSVWNVIVDLIIV -0.225

Please look at this substance and report its amyloid nucleation score: TANTLRYSFCAT -0.213

For LILRLVHKLGLCVPLSGSRG , write its amyloid nucleation score. -0.827

Give amyloid nucleation score for the following substance: FPLAIVLIVN 0.059

Please report the measured amyloid nucleation score for CILRRMDADFIFIVCVDCFG -0.055

Return amyloid nucleation score (reported value) for this substance: GVFRLMDRNNI 0.653

Hello, please tell me recorded amyloid nucleation score for this one: TVLNDYWFSTHKLSIR 0.958

Query amyloid nucleation score for APSLVVRPSFGGLRTRVVYP 0.44

Check the records and state amyloid nucleation score for CVKLGYYWSF 0.598

Further cases:
Please give the documented amyloid nucleation score of VSTYRRDIMLHVITIENKLT 2.29

// Input: SHEFLSSVYQSVLIVSNF . Output its amyloid nucleation score only. -0.508

For the substance AGLPRSGSIQRDYREKVWAA , give its reported amyloid nucleation score. -0.194

# return recorded amyloid nucleation score for entry SGHNLWRRGQKWSL -0.455

Return amyloid nucleation score (reported value) for this substance: ERTMGLSVMWAIECCLRNPG 2.05

Answer with the recorded amyloid nucleation score of YDSSLMGVWMCGCIARWEVS only. -1.93

Determine its reported amyloid nucleation score: KSTLVKHLNQYYRLVLMGPL 1.1

Entry EALLWTEGMWHSSGGLYSNV needs its amyloid nucleation score filled in; supply it. 0.261

Specify reported amyloid nucleation score for the substance shown: DMPFSDFMN -0.096

Answer with the recorded amyloid nucleation score for the substance listed here: WNNVSCIELSSVSWNPDEVG -0.302

Return reported amyloid nucleation score. Input substance: TDGTLIGSY 0.128

Quick one: give measured amyloid nucleation score for NVMCAGYIIMGATMYKKWVM 0.902

Specify measured amyloid nucleation score for YTVPQSLSLLCSAYLILLDA . 0.561

Quickly give me recorded amyloid nucleation score for AFYRAFTPCISVPIRND 0.765

====

# measurement-notes: amyloid nucleation score (Sup35N fusion, yeast selection) (log enrichment); library NNK1; higher = more nucleation; inactive = no reads after selection
Listed below: amyloid nucleation score values for each entry.
Reply with just the number.

Tell me amyloid nucleation score reported for SMTLMWTTPSSYIAWI -0.792

====

# measurement-notes: amyloid nucleation score (Sup35N fusion, yeast selection) (log enrichment); library NNK2; higher = more nucleation; inactive = no reads after selection
measurement-kind: amyloid nucleation score

Worked examples, 10 substances total:
Return the recorded amyloid nucleation score value; entry: QVLLGTLHKVY 1.4

Give reported amyloid nucleation score value for ITDGLYLTWGFDP 0.931

Using the record for VLVMVRTFNGNILPFLAPDL , state its measured amyloid nucleation score. 5.71

Please give measured amyloid nucleation score of the following entry: LFTEISKYQVYGVYWTALFE -0.137

Please give measured amyloid nucleation score of the following entry: HQFYHFAEENN -0.249

Annotate the substance IGLHVWHLSLKGSSDLSGTV with its measured amyloid nucleation score. 1.85

Give the measured amyloid nucleation score for NSGARSTSLVNVWVLYLLDR 6.41

Query amyloid nucleation score for RFCWAMYNGFPHK 4.33

Name the recorded amyloid nucleation score of the substance listed here: LLLVPIPH 1.07

Note amyloid nucleation score for the substance shown: KLGKPFARRKFCICNSQWVG -0.743

***
Using the record for VLLSKGRNHSPCVHILAIIP , state its measured amyloid nucleation score. 0.494

Consider the substance QLQFMRADFFLNKVKLRGET . State its measured amyloid nucleation score. inactive

Determine its reported amyloid nucleation score: YYTFFNKRYNRWCMMNLNLT inactive

Supply measured amyloid nucleation score of YDAMFS in your reply. 1.09

For the substance VIAKDLMHMLPLYM , give its reported amyloid nucleation score. 0.37

Return value of amyloid nucleation score for input VSVRGTHVL , no commentary. -0.28

Report amyloid nucleation score, nothing else, for this substance: GLDCIVSINRVQLTSAGLIE 0.382

Look up amyloid nucleation score of KSVQDNDMSPACRAD and report it. 0.804

Look up and state reported amyloid nucleation score for PYIWYPISECRGSSSFETYA 0.29

Identify measured amyloid nucleation score corresponding to SRLKIFIPNVFL -0.067

Specify measured amyloid nucleation score for LTRYLLWLLVESGFLGRSGV . -0.21

====

Recorded amyloid nucleation score, one value per entry.
# measurement-notes: amyloid nucleation score (Sup35N fusion, yeast selection) (log enrichment); library NNK1; higher = more nucleation; inactive = no reads after selection
Would you mind answering with just the numeric figure?

The cases that follow already have their amyloid nucleation score on record.
Using the record for SHLGVMLNIRYNKSPQTTAP , state its measured amyloid nucleation score. 2.1

Indicate its recorded amyloid nucleation score; the sequence in question is LSCQTPQSDEMSVAESAWAY -1.18

Provide amyloid nucleation score value for the following sequence: GKIYWLLLQTDKDRRFLTMR -0.744

Note down amyloid nucleation score recorded for FFCSNDLSFVAELILINRQV 0.87

Give amyloid nucleation score for the following sequence: SYKGFRSGKVWCFNEASYTS 1.18

***
Tell me measured amyloid nucleation score for LVMTYVFLDCI please. -0.634

Give me measured amyloid nucleation score, please, for this sequence: FIISSTQPRCRAPLTS -0.165

Name the recorded amyloid nucleation score of the sequence listed here: NEPHWSLLRF -0.535

Provide measured amyloid nucleation score value, entry: KSYYGSLNLAMSTSLYIQTM 0.769

Tell me amyloid nucleation score reported for GDELKRVWYLGTLSRMRGTE -0.574

Please report amyloid nucleation score for the following sequence: NGCLFILFCILLFKAQPSIA 0.057

====

# measurement-notes: amyloid nucleation score (Sup35N fusion, yeast selection) (log enrichment); library NNK2; higher = more nucleation; inactive = no reads after selection
# if value of amyloid nucleation score reaches 0.2, tag fulfilled; if it stays below, tag not fulfilled

Solved entries (count: 6):
Hello, I need to know if RVDFFRFSVQSESWSVLH has measured amyloid nucleation score not below 0.2. Thanks! fulfilled

# bool: amyloid nucleation score of IVARHPIGFQLVWGHWLTVA >= 0.2 fulfilled

I'd appreciate it if you could say whether LYAVRSALYFCTVYFGSSNR has amyloid nucleation score at least equal to 0.2. fulfilled

# check: amyloid nucleation score of LGGLSDVFQNRPLMTYGAWS is greater than or equal to 0.2 not fulfilled

Dear colleague, could you confirm whether TSRLNMVTSHVLKWCDNRSR has amyloid nucleation score at or above 0.2? not fulfilled

Please indicate if the recorded amyloid nucleation score for DLSISSLGFQNIVLSHDNGY meets or exceeds 0.2. not fulfilled

***
Does the reported amyloid nucleation score for TEDVDL fall at or above the 0.2 mark? fulfilled

Hi, just wondering whether TFSWMTPNWRSHYMLDCDPG shows amyloid nucleation score of 0.2 or higher. not fulfilled

API: above_or_equal(metric=amyloid nucleation score, cutoff=0.2) for item FSQFMKLNSRFIRRYMWCVL not fulfilled

Check the entry LMGGYLEYGSFVTT : does amyloid nucleation score equal or exceed 0.2? fulfilled

Given VRSPCVDVYFPYSLVLDMCL , state whether its amyloid nucleation score is at least 0.2. fulfilled

Decide: is the reported value of amyloid nucleation score for RQLHLVLNRVGWMLWYTH equal to or greater than 0.2? fulfilled

# check: amyloid nucleation score of IDHYLVLASLDW is greater than or equal to 0.2 not fulfilled

Hi, just wondering whether SRTRGTLDGS shows amyloid nucleation score of 0.2 or higher. fulfilled

Kindly determine if amyloid nucleation score recorded for HVLSLGAGWKYVGVDECKE is above or exactly 0.2. fulfilled

Please check the record VGCIYRTQDCCSRDMVCIRV and state if its amyloid nucleation score is at or above 0.2. not fulfilled

Would you say NQRHVIPNSIVLWWGELDLF shows amyloid nucleation score at minimum 0.2? fulfilled

====

# measurement-notes: amyloid nucleation score (Sup35N fusion, yeast selection) (log enrichment); library NNK1; higher = more nucleation; inactive = no reads after selection
measurement-kind: amyloid nucleation score
Quick one: just the number, no unit, thanks!

Note down amyloid nucleation score recorded for LWPTGSRLSDG -0.354

State its amyloid nucleation score for this substance: CEAMVLKGCAEAVQYRATDS -0.23

Please list amyloid nucleation score recorded for the substance GYGNRNLALARGMLGQIL 0.215

Others:
Query amyloid nucleation score for RRRSLLLVWRMTVGWVWGWD -0.215

Give the reported value of amyloid nucleation score for this record: NIFVGLLTWLCVKLCMGMFV -0.633

For the substance SDGMFSYNVRFAQRSWMYRT , report amyloid nucleation score. -0.14

For the substance VIIYLMARSLKVAH , give its reported amyloid nucleation score. 0.453

// Input: TCFTLGRPNSLFCDCIGHKS . Output its amyloid nucleation score only. -0.011

Consider the substance GCEFWSYTLTLRGKNACNKL . State its measured amyloid nucleation score. -0.234

Look up and state reported amyloid nucleation score for HLGLSNPFMMSFHV -0.189

Could you please provide reported amyloid nucleation score for FCLYISTIDID ? Thanks! 0.556

Provide one value: measured amyloid nucleation score of AVNSGRWLSVLRRRMESFLV 0.203

Name the recorded amyloid nucleation score of the substance listed here: RISLRYGQRC 0.356

Please look at this substance and report its amyloid nucleation score: YCVSFLRSSLP 3.39

Give the measured amyloid nucleation score for HGMWNGFTILM 3.26

Assign amyloid nucleation score to the following record: TGLSSYM -0.701
